B1: TOR1AIP2 (parent)
chain: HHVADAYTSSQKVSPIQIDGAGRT

Variants of: B1
Experiment: protein stability index of a GFP-peptide fusion (GPS, HEK-293T) (PSI 1-6); higher = more stable;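 further: lentivirally expressed fusions sorted by FACS into six bins by GFP to DsRed ratio, PSI derived from sequencing read proportions per bin multiplied by bin number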
Details: c terminus: a fixed tail appended
Readout kind: protein stability index
Enter a number only.

Below: 5 variants and their reported protein stability index.
> print(dat)
   changes             readout.kind  observed.result
1     G22L  protein stability index             2.92
2     T24W  protein stability index             2.97
3     K12Y  protein stability index             3.02
4     V13A  protein stability index             3.27
5      T8C  protein stability index             2.78

A6C has a reported protein stability index of 3.98

K12P has a reported protein stability index of 4.16

T8F has a reported protein stability index of 3.27

S10L has a reported protein stability index of 3.07

P15Q has a reported protein stability index of 3.43

S10K has a reported protein stability index of 3.46

V13Q has a reported protein stability index of 3.85

R23M has a reported protein stability index of 3.26

D19L has a reported protein stability index of 2.36
